- procedure.details: Solubility of compound A in dissolution test fluids and water
- Assay type: physicochemical
- settings: Japanese Pharmacopoeia, aqueous buffer; 2nd fluid for dissolution test JP2 (pH 6.8); read-out: solubility at a neutral pH range
metric: solubility

Which solubility value belongs to NC(=O)c1cnc2[nH]ccc2c1N[C@@H]1[C@@H]2CC3C[C@H]1C[C@@](O)(C3)C2 ?
~8 µg/mL
